Tested on: VEGF-stimulated HUVEC proliferation (Human Umbilical Vein Endothelial cells)
Test: HUVEC Proliferation Assay
Type: cell-based
Settings: VEGF 50 ng/mL, 72 h, CyQuant fluorescent dye, read-out: inhibited VEGF-stimulated HUVEC proliferation at a level
pIC50: −log10 of the molar value.
Give pIC50 for every item shown.

Could you tell me which pIC50 is on file for O=C(Nc1ccc(C(OC[C@@H]2CCCN2)(C(F)(F)F)C(F)(F)F)cc1)c1cccnc1NCc1ccnc2[nH]ccc12 [Example 20] ?
> 6.30

Could you tell me which pIC50 is on file for Cc1cc(NC(=O)c2cc(F)cnc2NCc2ccnc3[nH]ncc23)ccc1C(C)C [Example 121] ?
> 6.30

Could you tell me which pIC50 is on file for O=C(Nc1cccc(C(F)(F)F)c1)c1cc(F)cnc1NCc1ccnc2[nH]ccc12 [Example 98] ?
> 6.30

Could you tell me which pIC50 is on file for CC(C)(C)c1ccc(NC(=O)c2cccnc2NCc2ccnc3c2CCN3)cc1 [Example 28] ?
> 6.30

* * *

pIC50: −log10 of the molar value.
Give pIC50 for every item shown.

Please provide the recorded pIC50 for CC(C)(C)c1ccc(NC(=O)c2cccnc2NCc2ccncc2)cc1 [reference compound] , tested on CYP 3A4 (Homo sapiens, UniProt P08684).
Sequence (P08684 whole entry): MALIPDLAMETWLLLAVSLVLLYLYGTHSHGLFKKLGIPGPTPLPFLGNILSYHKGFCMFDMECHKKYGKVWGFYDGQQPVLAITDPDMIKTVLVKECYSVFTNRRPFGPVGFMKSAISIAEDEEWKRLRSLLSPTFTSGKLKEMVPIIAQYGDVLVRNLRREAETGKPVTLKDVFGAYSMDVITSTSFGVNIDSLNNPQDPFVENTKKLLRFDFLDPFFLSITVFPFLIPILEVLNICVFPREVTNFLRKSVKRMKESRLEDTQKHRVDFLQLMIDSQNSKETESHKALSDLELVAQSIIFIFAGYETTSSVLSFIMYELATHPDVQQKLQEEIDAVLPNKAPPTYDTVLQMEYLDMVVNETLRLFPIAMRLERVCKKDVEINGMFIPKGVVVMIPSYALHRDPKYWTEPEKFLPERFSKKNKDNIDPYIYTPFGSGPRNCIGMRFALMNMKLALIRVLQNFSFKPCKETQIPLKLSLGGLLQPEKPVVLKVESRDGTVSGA
5.57

Please provide the recorded pIC50 for CC(C)Oc1ccc(NC(=O)c2cc(F)cnc2NCc2ccnc3[nH]ccc23)cc1 [Example 95] , tested on CYP 3A4 (Homo sapiens, UniProt P08684).
< 4.70

Please provide the recorded pIC50 for CC(C)(C)c1ccc(NC(=O)c2cc(F)cnc2NCc2ccnc3[nH]ncc23)cc1 [Example 125] , tested on CYP 3A4 (Homo sapiens, UniProt P08684).
< 4.70

Please provide the recorded pIC50 for CC1(C)CNCc2cc(NC(=O)c3cccnc3NCc3ccnc4[nH]ccc34)ccc21 [Example 1] , tested on CYP 3A4 (Homo sapiens, UniProt P08684).
5.01

Please provide the recorded pIC50 for CCc1nc2cc(NC(=O)c3cc(F)cnc3NCc3ccnc4[nH]ccc34)ccc2o1 [Example 92] , tested on CYP 3A4 (Homo sapiens, UniProt P08684).
< 4.70

Please provide the recorded pIC50 for Cc1cc(NC(=O)c2cc(F)cnc2NCc2ccnc3[nH]ncc23)ccc1C(C)C [Example 121] , tested on CYP 3A4 (Homo sapiens, UniProt P08684).
< 4.70

Please provide the recorded pIC50 for Cc1nc2cc(NC(=O)c3cccnc3NCc3ccnc4[nH]ccc34)ccc2s1 [Example 48] , tested on CYP 3A4 (Homo sapiens, UniProt P08684).
< 4.70

Please provide the recorded pIC50 for CC1(C)CNc2cc(NC(=O)c3cc(F)cnc3NCc3ccnc4[nH]ccc34)ccc21 [Example 130] , tested on CYP 3A4 (Homo sapiens, UniProt P08684).
< 4.70
